measured-on: dTDP-4-dehydrorhamnose reductase (Mycobacterium tuberculosis (strain ATCC 25618 / H37Rv)) + dTDP-4-dehydrorhamnose 3,5-epimerase (Mycobacterium tuberculosis (strain ATCC 25618 / H37Rv)) (UniProt P9WH09+P9WH11)
Sequence (P9WH09 whole entry, looked up): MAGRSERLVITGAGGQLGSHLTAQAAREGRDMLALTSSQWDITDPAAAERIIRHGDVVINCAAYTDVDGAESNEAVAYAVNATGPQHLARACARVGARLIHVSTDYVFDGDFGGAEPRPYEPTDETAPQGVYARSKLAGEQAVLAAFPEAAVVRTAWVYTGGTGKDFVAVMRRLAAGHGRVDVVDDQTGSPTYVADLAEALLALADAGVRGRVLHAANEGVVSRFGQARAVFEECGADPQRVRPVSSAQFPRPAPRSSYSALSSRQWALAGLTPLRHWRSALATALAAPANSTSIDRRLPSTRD
Sequence (P9WH11 whole entry, looked up): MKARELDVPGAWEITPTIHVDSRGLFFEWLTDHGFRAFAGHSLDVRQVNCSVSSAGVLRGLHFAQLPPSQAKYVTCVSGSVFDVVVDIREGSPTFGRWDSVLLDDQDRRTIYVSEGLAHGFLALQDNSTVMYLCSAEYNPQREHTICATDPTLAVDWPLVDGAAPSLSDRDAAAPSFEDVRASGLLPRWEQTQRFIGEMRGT
assay-comment: M. tuberculosis RmlC/RmlD coupled enzyme inhibitors, primary screen, biochemical, compound mixtures, 384-well, from 1536-well plates (AID 1533)
experimental-parameters: RmlC+RmlD coupled enzyme assay, percent inhibition; primary screen in compound mixtures; at 3.6 µM; stronger effect = higher value
The campaign covered roughly 160,000 compounds. About 45 (0.03%) were called active. Many of the other results were omitted from the sample, so actives are more common in it than they were.
For each record, write down the corresponding inhibition.
Provide the reading as a plain figure in %.

Record request: inhibition value, item `NC(=O)Cc1ccc2c(c1)[nH]c1ccccc12` -1.93

Consider next the compound CC(NC(=S)Nc1ccccc1)C(c1cccs1)N1CCOCC1 (configuration not stated) in the same way. 3.55

Consider next the compound `O=C(O)CCCCCCCCCC[n+]1ccccc1` in the same way. 9.14

Consider next the compound `O=C1[C@@H]2C(c3cccnc3)=NO[C@@H]2C(=O)N1c1ccc(Cl)cc1Cl` in the same way. 13.9

Consider next the compound `O=[N+]([O-])/C(N=Nc1ccccc1)=N\Nc1ccccc1` in the same way. -9.57

Consider next the compound `CCN1C(=O)/C(=c2\s/c(=C3\Sc4ccccc4N3C)c(=O)n2C)N(C)C1=S` in the same way. -7.72

Consider next the compound `CCOc1ccc2nc(NCCNC(=O)C(C)(C)C)c(C)cc2c1` in the same way. -1

Consider next the compound `C=CCNC(=S)N1CCc2[nH]c3ccccc3c2C1` in the same way. -7.26

Consider next the compound `CCN(CC)CCn1cnc2c1c(=O)n(CCOC(=O)c1cc(OC)c(OC)c(OC)c1)c(=O)n2C` in the same way. 3.47

Consider next the compound `CC(=O)c1sc(NC(=O)C2=NN(c3ccccc3)C(=O)CC2)nc1C` in the same way. -9.61

Consider next the compound `Cc1ccccc1C(=O)Nc1ccc(N2CCCCCC2)cc1` in the same way. -4.06

Consider next the compound `O=S(=O)(c1ccccc1)N1CN(Cc2ccc(F)cc2)c2nc3ccccc3nc21` in the same way. -11.9

Consider next the compound `CCOc1ccc(CCN2C(=O)c3cccnc3C2=O)cc1OCC` in the same way. 3.14

Consider next the compound `OCC1(Cc2ccccc2C(F)(F)F)CCN(Cc2ccncc2)CC1` in the same way. 9.49

Consider next the compound `CCN1CCc2nc(NC(=O)c3cc(F)c(F)cc3Cl)sc2C1` in the same way. -6.97

Consider next the compound `CN(CC(=O)Nc1ccccc1F)CC(=O)Nc1ccccc1Br` in the same way. 27.7

Consider next the compound `C/C(=C\c1ccco1)CN1CCC(N2CCC(C(=O)N3CCOCC3)CC2)CC1` in the same way. 3.12

Consider next the compound N#CC1=C(N)Oc2c(ccc3cccnc23)C1c1ccncc1 (configuration not stated) in the same way. 4.04

Consider next the compound CCC(C)NC(=O)C1c2ccccc2Oc2ccccc21 (configuration not stated) in the same way. 10.6

Consider next the compound `Cn1c(SCC(=O)Nc2ccc(Cl)cc2)nc(O)cc1=O` in the same way. 3.67

Consider next the compound `CCCc1nc2oc3c(=O)[nH]cnc3c2c2c1COC(C)(C)C2` in the same way. -9.43

Consider next the compound `O=[N+]([O-])/C=C1\CCCCCN1` in the same way. -6.23

Consider next the compound `C=CCSc1nnc(NC(=O)c2ccc(NC(C)=O)cc2)s1` in the same way. 2.48

Consider next the compound `CN(C)C(=O)c1nc2ccc(Cl)cn2c1CNCc1cccc(OC(F)(F)F)c1` in the same way. 10.5

Consider next the compound COc1ccc(C2=NN(C(=O)CCC(=O)O)C(c3cccs3)C2)cc1OC (configuration not stated) in the same way. -7.36

Consider next the compound `C/C(CCc1ccccc1)=N\NC(=O)c1ccc(CN2CCOCC2)cc1` in the same way. 6.96

Consider next the compound CC(NC(=O)C(=O)Nc1nccs1)c1ccccc1 (configuration not stated) in the same way. 12.6

Consider next the compound COc1ccc(OCC(O)CNCCNc2nccc(C(F)(F)F)n2)cc1 (configuration not stated) in the same way. 42.7

Consider next the compound `Cc1nc2cccnc2nc1C` in the same way. -6.92

Consider next the compound `O=C(NCc1cccnc1)C(=O)Nc1nc(-c2ccccc2)cs1` in the same way. -5.87

Consider next the compound `CC(=O)N1N=C(c2ccncc2)OC1(Cc1ccccc1)Cc1ccccc1` in the same way. 9.53

Consider next the compound `CN1CCN(CCNC(=O)Nc2ccc([N+](=O)[O-])cc2)CC1` in the same way. 5.16

Consider next the compound O=C1C2C3C=CC(C3)C2C(=O)N1c1ccc(-c2nc3ccccc3c(=O)o2)cc1 (configuration not stated) in the same way. 1.56

Consider next the compound `O=c1[nH]nc(SCCS(=O)(=O)c2ccc(F)cc2)n1-c1ccccc1C(F)(F)F` in the same way. -9.62

Consider next the compound `S=c1[nH]nc(Nc2ccccc2)s1` in the same way. -6.55

Consider next the compound O=C(O)C(NS(=O)(=O)c1cccc2nsnc12)c1ccccc1 (configuration not stated) in the same way. -10.9

Consider next the compound COc1c(N2CCN(C(=S)Nc3ccccc3F)C(C)C2)c(F)cc2c(=O)c(C(=O)O)cn(C3CC3)c12 (configuration not stated) in the same way. 9.08

Consider next the compound COc1ccc(CNC(=O)C(Cc2ccccc2)n2cccc2)cc1 (configuration not stated) in the same way. 6.07

Consider next the compound `Cc1c(C)c(C)c2[nH]c(=S)[nH]c2c1C` in the same way. 4.61

Consider next the compound `COc1ccc(Nc2cc(=O)n(-c3ccccc3)c3c2c(=O)n(C)c(=O)n3C)cc1` in the same way. 13.6

Consider next the compound `O=C(C[n+]1ccc2c(c1)nnn2-c1ccccc1)c1ccc(Cl)cc1` in the same way. -3.04

Consider next the compound `Cc1nc2nc(SCC(=O)c3ccccc3)[nH]c2cc1Br` in the same way. 4.73

Numbers sourced from PubChem BioAssay AID1533.
